The values you see were collected from BigSolDB 2.1.

measurement parameters: in acetone, 288.15 K
experimental endpoint: solubility (mole fraction)
// return just the number, without any unit appended

Prompt: What does the record list as solubility (mole fraction) for Cc1c(-c2ccccc2)oc2c(C(=O)O)cccc2c1=O ?
Response: 0.00259

###

measurement parameters: in methanol, 308.15 K
experimental endpoint: solubility (mole fraction)
Hey, just send me the number, nothing else.

Prompt: Could you tell me which solubility (mole fraction) is on file for Cc1c(-c2ccccc2)oc2c(C(=O)O)cccc2c1=O ?
Response: 0.00181

###

measurement parameters: in THF, 288.15 K
experimental endpoint: solubility (mole fraction)
No unit in the answer, only the number.

Prompt: So what does the record say about solubility (mole fraction) for Cc1c(-c2ccccc2)oc2c(C(=O)O)cccc2c1=O ?
Response: 0.0183
